Recorded inhibition at 1 µM by entry
- SYSTEM_TESTED: CDK2/CyclinE (Homo sapiens)
- Construct: purchased Millipore, Billerica, Mass., USA
- MEASUREMENT_PROTOCOL: ADP-Glo Kinase Assay, CDK2/CyclinE
- Assay type: biochemical
- ASSAY_CONTEXT: read-out: % inhibition at 1 μM CDK2/CyclinE
REPORTED_PROPERTY: inhibition at 1 µM

> print(dat)
                                     smiles   reported.property  result
1     Cc1c(Br)c(Br)c2c3c1nc(C1CCNCC1)n3CCC2  inhibition at 1 µM      7%
2  N[C@@H]1CCN(c2nc3c(Br)c(Br)c(Br)c4c3n2CCC4)C1  inhibition at 1 µM     44%
3    Brc1c(Br)c2c3c(nc(N4CCCCC4)n3CCC2)c1Br  inhibition at 1 µM      0%
4  CN1CCC(c2nc3c(Br)c(Br)c(Br)c4c3n2CCC4)CC1  inhibition at 1 µM     14%
5   N#Cc1c(Br)c(Br)c2c3c1nc(N1CCNCC1)n3CCC2  inhibition at 1 µM      0%
6      CCN(CC)c1nc2c(I)c(Br)c(Br)c3c2n1CCC3  inhibition at 1 µM      9%

Provenance of the data: patent US9745299B2
